- System tested: cloned human or rodent CNS receptors, channels, and transporters (PDSP panel) (Homo sapiens, UniProt P50406)
- Construct: expressed in transfected cells
- Sequence (P50406 whole entry): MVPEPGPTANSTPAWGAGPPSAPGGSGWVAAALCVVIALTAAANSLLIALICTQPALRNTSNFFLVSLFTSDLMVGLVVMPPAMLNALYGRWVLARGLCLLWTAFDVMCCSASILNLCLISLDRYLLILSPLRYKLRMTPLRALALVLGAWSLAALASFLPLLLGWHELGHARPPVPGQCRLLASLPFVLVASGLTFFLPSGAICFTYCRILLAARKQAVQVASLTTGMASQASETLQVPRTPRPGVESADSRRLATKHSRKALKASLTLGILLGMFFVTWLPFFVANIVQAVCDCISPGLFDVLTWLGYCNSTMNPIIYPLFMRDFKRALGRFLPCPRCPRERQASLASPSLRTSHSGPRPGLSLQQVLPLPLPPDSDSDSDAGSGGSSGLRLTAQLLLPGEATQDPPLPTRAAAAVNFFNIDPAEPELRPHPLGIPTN
- Test description: PDSP GPCR panel primary binding assays at 10 μM
- Assay conditions: Receptor 5-HT6; primary assay, 10 μM
I'd be grateful if you could share measured Inhibition 2 for these entries.
Give bare numbers, in %.

Sample answers from the record:
> print(dat)
                                   molecule   value
1  c1cn2cc(-c3ccc4cn[nH]c4c3)nc(Nc3ccc(N4CCOCC4)cc3)c2n1 [UNC10302678A, Entospletinib (GS-9973)]  -29.65
2  O=c1oc2ccccc2cc1-c1cn2cc(Cc3ccc(F)cc3)sc2n1 [UNC10302680A, iMDK]   -28.7
3  Cl.NC(=O)c1cnc(N[C@@H]2CCCC[C@@H]2N)nc1Nc1cccc(-n2nccn2)c1 [UNC10302682A, P505-15 (PRT06207 HCl)]  -19.49

What value of Inhibition 2 has been recorded for this entry: CCCCNc1ncc2c(-c3ccc(CN4CCN(C)CC4)cc3)cn([C@H]3CC[C@H](O)CC3)c2n1 [UNC2025C, UNC2025] 0.2

* * *

- System tested: cloned human or rodent CNS receptors, channels, and transporters (PDSP panel) (Homo sapiens, UniProt P08912)
- Construct: expressed in transfected cells
- Sequence (P08912 whole entry): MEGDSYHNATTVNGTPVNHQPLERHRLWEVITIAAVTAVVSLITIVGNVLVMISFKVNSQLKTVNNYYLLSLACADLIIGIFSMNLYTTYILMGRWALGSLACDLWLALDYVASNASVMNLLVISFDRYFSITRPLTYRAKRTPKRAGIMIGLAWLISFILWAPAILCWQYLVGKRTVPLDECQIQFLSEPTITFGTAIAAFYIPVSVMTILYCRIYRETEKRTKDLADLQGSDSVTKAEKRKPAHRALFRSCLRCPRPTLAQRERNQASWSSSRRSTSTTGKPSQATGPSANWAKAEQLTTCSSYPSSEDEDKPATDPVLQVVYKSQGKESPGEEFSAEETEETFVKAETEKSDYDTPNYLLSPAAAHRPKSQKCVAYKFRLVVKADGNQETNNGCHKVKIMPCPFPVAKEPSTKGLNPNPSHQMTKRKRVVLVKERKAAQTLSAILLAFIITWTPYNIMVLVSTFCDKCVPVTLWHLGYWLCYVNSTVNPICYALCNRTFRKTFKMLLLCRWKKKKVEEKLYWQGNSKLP
- Test description: PDSP GPCR panel primary binding assays at 10 μM
- Assay conditions: Receptor M5; primary assay, 10 μM
I'd be grateful if you could share measured Inhibition 2 for these entries.
Phrase the answer as number then unit, nothing more needed.

Sample answers from the record:
> print(dat)
                                   compound   value
1  Cl.NC(=O)c1cnc(N[C@@H]2CCCC[C@@H]2N)nc1Nc1cccc(-n2nccn2)c1 [UNC10302682A, P505-15 (PRT06207 HCl)]  13.95%
2  CCCCNc1ncc2c(-c3ccc(CN4CCN(C)CC4)cc3)cn([C@H]3CC[C@H](O)CC3)c2n1 [UNC2025C, UNC2025]  21.19%
3  c1cn2cc(-c3ccc4cn[nH]c4c3)nc(Nc3ccc(N4CCOCC4)cc3)c2n1 [UNC10302678A, Entospletinib (GS-9973)]  -7.99%

Field: next compound
What value of Inhibition 2 has been recorded for this entry: O=c1oc2ccccc2cc1-c1cn2cc(Cc3ccc(F)cc3)sc2n1 [UNC10302680A, iMDK] -17.55%

* * *

- Test system: cloned human or rodent CNS receptors, channels, and transporters (PDSP panel)
- Test description: PDSP GPCR panel primary binding assays at 10 μM
- Assay conditions: Receptor Alpha2A; primary assay, 10 μM
Observed property: Inhibition 2 (%)
Answers are plain numbers, in %.

Sample answers from the record:
> print(dat)
                                   compound  observed.property  units.label   value
1  O=c1oc2ccccc2cc1-c1cn2cc(Cc3ccc(F)cc3)sc2n1 [UNC10302680A, iMDK]       Inhibition 2            %   11.68
2  c1cn2cc(-c3ccc4cn[nH]c4c3)nc(Nc3ccc(N4CCOCC4)cc3)c2n1 [UNC10302678A, Entospletinib (GS-9973)]       Inhibition 2            %  -11.16
3  Cl.NC(=O)c1cnc(N[C@@H]2CCCC[C@@H]2N)nc1Nc1cccc(-n2nccn2)c1 [UNC10302682A, P505-15 (PRT06207 HCl)]       Inhibition 2            %   23.31

Field: next compound
What value of Inhibition 2 has been recorded for this entry: CCCCNc1ncc2c(-c3ccc(CN4CCN(C)CC4)cc3)cn([C@H]3CC[C@H](O)CC3)c2n1 [UNC2025C, UNC2025] 35.02
